src = ChEMBL document CHEMBL3785071

method: Inhibition of Bacillus anthracis Sterne 34F2 DnaG primase activity using a DNA 32-mer template
Parameters: species or system Bacillus anthracis str. Sterne
metric.name: IC50

>>> reported_value("CCN(CC)CCOc1ccc2c(c1)C(=O)c1cc(OCCN(CC)CC)ccc1-2")
"7.1 µM"

----------
Test system: Yersinia pestis
method: Antibacterial activity against Yersinia pestis A1122 at 100 ug/ml after 20 hrs
Format: functional
Active and inactive are the calls of the source. The calls are words filed in the database; no cut-off is given here.
metric.name: Activity

>>> reported_value("C=CCOc1ccc2c(c1)C(=O)c1cc(OCCCN(C)CC=C)ccc1-2")
"inactive"
>>> reported_value("O=C1c2cc(OCCN3CCCCC3)ccc2-c2ccc(OCCN3CCCCC3)cc21")
"inactive"
>>> reported_value("C=CCN(C)CCOc1ccc2c(c1)C(=O)c1cc(OCCN(C)CC=C)ccc1-2")
"inactive"
>>> reported_value("O=C1c2cc(OCCCCCCCCN3CCCCC3)ccc2-c2ccc(OCCCCCCCCN3CCCCC3)cc21")
"inactive"
>>> reported_value("C=CCN(C)CCCCCCCCOc1ccc2c(c1)C(=O)c1cc(OCCCCCCCCN(C)CC=C)ccc1-2")
"inactive"
>>> reported_value("O=C1c2cc(OCCCN3CCCCC3)ccc2-c2ccc(OCCCN3CCCCC3)cc21")
"inactive"
